Assayed System: T1, TCR gamma/delta constant region (TRGDC) (human, UniProt P0CF51 1-173; B7Z8K6 1-153)
T1 chain (looked up) 1: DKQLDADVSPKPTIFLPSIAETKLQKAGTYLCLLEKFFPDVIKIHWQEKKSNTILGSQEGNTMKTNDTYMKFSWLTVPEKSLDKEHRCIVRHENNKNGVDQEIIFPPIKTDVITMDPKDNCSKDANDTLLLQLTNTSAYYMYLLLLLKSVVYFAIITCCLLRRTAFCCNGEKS
T1 chain (looked up) 2: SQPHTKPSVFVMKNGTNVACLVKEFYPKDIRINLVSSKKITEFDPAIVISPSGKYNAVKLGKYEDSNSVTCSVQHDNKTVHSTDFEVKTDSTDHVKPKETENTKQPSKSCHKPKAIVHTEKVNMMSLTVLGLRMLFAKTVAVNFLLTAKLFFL
Protocol Description: cell-based or functional assay
Respond with Met for CD71+ (Vg9+ cells), flow staining values of 90% and above, Not met for values below.

VG9B386 (antibody, human IgG1, kappa, V domains shown) VH: EVQLVESGGGLVKPGGSLRLSCAASGFTFSSYSMIWVRQAPGKGLEWVSSIGSSSTYIYYADSVRGRFTISRDNAKTSLYLQMNSLRAEDTAMYFCARDGETGGFDYWGQGILVTVSS VL: EIVMTQSPGTLSLSPGERATLSCRASQSISRSYLAWYQQKPGQPPRLLIYGPSNRATGIPDRFSASGSGTDFTLTNSRLEPEDFAVYYCQQYGSLPLTFGGGTKVEIKR
Met
VG9B125 (antibody, human IgG1, kappa, V domains shown) VH: EVQLVESGGTLVQPGGSLRLSCAVSGFTFSSYDMNWVRQAPGKGLEWVSYISSSSTAKYYADSVKGRFTISRDNAKNSLYLQMNSLWDEDTAVYYCAREDIVVVTPILQHWGQGTTVTVSS VL: EIVMTQSPATLSLSPGERAILSCRASQSVSKDLAWYQQKPGQAPRLLIYDASNRATGIPARISGSGSGTDFTLTISSLEPEDFAVYYCQQRINWPLFTFGPGTKVEIKR
Not met

Could you now consider this next binder?
Does VG9B136 (antibody, human IgG1, kappa, V domains shown) VH: QVQLQQSGPGLVKPSQTLSLTCAISGDSVSSNRAAWNWIRQSPSKGLEWLGRTYYRSKWYNEYAASVKSRMSINPDTSKNQFSLQLNSVTPEDTALYYCARDLWELREACDIWGQGTMVTVSS VL: DIVMTQSPSFLSTFVGDRVTITCRASQGISSYLAWYQQKPGKVPKLLIYVASTLQSGVPSRFSGSGSGTEFTLTISSLQPEDFATYYCQQLNSYPFTFGPGTKVDIKR have a reported CD71+ (Vg9+ cells), flow staining of at least 90%?
Met

Origin of values: patent US20220125947A1
